biological target: H8 (Influenza A virus); experiment: FACS, HA on mammalian cells; 2nd only 7.9
Each entry below carries its recorded % cells binding to HA.

- FHF11v9 (antibody, V domains shown) VH: QVQLQQSGPGLVKPSQTLSVTCGISGDSVSSYSAAWNWIRQSPSRGLEWLGRTYYRSGWYNDYAVSVKSRITINPDTSKNQFSLQLISVTPEDTAVYYCARVGAMTFGLLTGGMDVWGQGTTVTVSS VL: EIVLTQSPGTQSLSPGERATLSCRASQSLSRSYLAWYQQRPGKPPRLLIYGASSRATGIPDRFSGSGSGTDFSLTISSLEPEDSAMYFCQYYGDSPLFSFGPGTKVDIK: 78%
- FHF11 (antibody, V domains shown) VH: QVQLQQSGPGLVKPSQTLSVTCGISGDSVSSHSAAWNWIRQSPSRGLEWLGRTYYRSKWYNDYAVSVKSRITINPDTSKNQFSLQLISVTPEDTAVYYCARVGAMTFGLLTGGMDVWGQGTTVTVSS VL: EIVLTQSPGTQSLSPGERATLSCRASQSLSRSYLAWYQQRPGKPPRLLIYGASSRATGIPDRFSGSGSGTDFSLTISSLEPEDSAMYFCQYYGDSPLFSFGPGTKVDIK: 80%

Request: Given the entry FHF11v3 (antibody, V domains shown) VH: QVQLQQSGPGLVKPSQTLSVTCGISGDSVSSYSAAWNWIRQSPSRGLEWLGRTYYRSKWYNDYAVSVKSRITINPDTSKNQFSLQLISVTPEDTAVYYCARVGAMTFGLLTGGMDVWGQGTTVTVSS VL: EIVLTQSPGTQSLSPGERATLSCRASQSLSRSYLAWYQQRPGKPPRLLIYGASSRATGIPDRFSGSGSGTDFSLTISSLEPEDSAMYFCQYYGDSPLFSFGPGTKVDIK , report its measured % cells binding to HA.
Result: 78%
